- ASSAY SYSTEM: T1, huEpCAM ECD Ag0065 (human) (UniProt P16422)
- T1 sequence: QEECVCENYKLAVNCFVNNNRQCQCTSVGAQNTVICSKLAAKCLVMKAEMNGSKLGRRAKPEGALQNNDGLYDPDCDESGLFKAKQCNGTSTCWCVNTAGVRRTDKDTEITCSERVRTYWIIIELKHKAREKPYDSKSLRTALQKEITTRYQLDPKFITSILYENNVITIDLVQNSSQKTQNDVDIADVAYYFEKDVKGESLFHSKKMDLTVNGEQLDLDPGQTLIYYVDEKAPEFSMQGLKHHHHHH
- TEST DETAILS: SPR single-cycle
Provide the recorded Kd for the entries that follow.
Give bare numbers, in nM.

Worked cases, answers included:
Ab1019 (antibody, V domains shown) VH: EVQLVESGGGLVQPGGSLRLSCAASGFTFSNYWMNWVRQAPGKGLEWVAQIRVKSENFATHYADSVKGRFTISRDDSKSTVYLQMNSLRAEDTAVYYCTLYDAFSWGQGTLVTVSS VL: DIQMTQSPSSLSASVGDRVTITCSASSSVSSGNFHWYQQKPGKAPKLLIYRTSNLASGVPSRFSGSGSGTDYTLTISSLQPEDFATYYCQQWSGYPYTFGQGTKVEIK : 2.5
Ab1024 (antibody, V domains shown) VH: EVQLVESGGGLVQPGGSLRLSCAASGFTFSNYWMNWVRQAPGKGLEWVAQIRVKSENFATHYVDSVKGRFTISRDDSKSTVYLQMNSLRAEDTAVYYCTLYDGFSWGQGTLVTVSS VL: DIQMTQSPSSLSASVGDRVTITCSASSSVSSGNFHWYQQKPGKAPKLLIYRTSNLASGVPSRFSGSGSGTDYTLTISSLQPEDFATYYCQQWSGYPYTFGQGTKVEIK : 2.3

Quick request: Kd for each listed item, please.
1. Ab1023 (antibody, V domains shown) VH: EVQLVESGGGLVQPGGSLRLSCAASGFTFSNYWMNWVRQAPGKGLEWVAQIRVKYENFATHYADSVKGRFTISRDDSKSTVYLQMNSLRAEDTAVYYCTLYDGFSWGQGTLVTVSS VL: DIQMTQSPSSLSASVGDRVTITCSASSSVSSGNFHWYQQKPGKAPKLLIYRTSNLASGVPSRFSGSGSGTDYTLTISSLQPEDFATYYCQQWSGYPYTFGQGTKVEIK
2. Ab1016 (antibody, V domains shown) VH: EVQLVESGGGLVQPGGSLRLSCAASGFTFSNYYMNWVRQAPGKGLEWVAQIRVKSENFATHYADSVKGRFTISRDDSKSTVYLQMNSLRAEDTAVYYCTLYDGFSWGQGTLVTVSS VL: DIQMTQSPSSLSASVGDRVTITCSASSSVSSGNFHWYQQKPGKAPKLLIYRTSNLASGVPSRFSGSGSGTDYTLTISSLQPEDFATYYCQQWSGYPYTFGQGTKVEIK
3. Ab1021 (antibody, V domains shown) VH: EVQLVESGGGLVQPGGSLRLSCAASGFTFSNYWMNWVRQSPGKGLEWVAQIRVKSENFATHYADSVKGRFTISRDDSKSTVYLQMNSLRAEDTAVYYCTLYDGFSWGQGTLVTVSS VL: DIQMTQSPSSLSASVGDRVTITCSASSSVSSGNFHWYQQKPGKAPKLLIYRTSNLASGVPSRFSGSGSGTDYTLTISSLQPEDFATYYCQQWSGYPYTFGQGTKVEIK
4. Ab1012 (antibody, V domains shown) VH: EVQLVESGGGLVQPGGSLRLSCAASGFTFSSYWMNWVRQAPGKGLEWVAQIRVKSENFATHYADSVKGRFTISRDDSKSTVYLQMNSLRAEDTAVYYCTLYDGFSWGQGTLVTVSS VL: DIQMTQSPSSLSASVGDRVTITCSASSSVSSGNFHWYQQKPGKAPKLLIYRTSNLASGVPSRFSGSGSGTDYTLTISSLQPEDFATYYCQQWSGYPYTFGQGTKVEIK
5. Ab1017 (antibody, V domains shown) VH: EVQLVESGGGLVQPGGSLRLSCAASGFTFSNYWMSWVRQAPGKGLEWVAQIRVKSENFATHYADSVKGRFTISRDDSKSTVYLQMNSLRAEDTAVYYCTLYDGFSWGQGTLVTVSS VL: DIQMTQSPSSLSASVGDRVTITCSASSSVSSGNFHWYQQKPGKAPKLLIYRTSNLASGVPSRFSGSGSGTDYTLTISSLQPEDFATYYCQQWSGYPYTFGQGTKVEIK
6. Ab1018 (antibody, V domains shown) VH: EVQLVESGGGLVQPGGSLRLSCAASGFTFSNYWMNWVRQAPGKGLEWVAQIRVKSENFATHYADSVKGRFTISRDDSKSTVYLQMNSLRAEDTAVYYCTLYEGFSWGQGTLVTVSS VL: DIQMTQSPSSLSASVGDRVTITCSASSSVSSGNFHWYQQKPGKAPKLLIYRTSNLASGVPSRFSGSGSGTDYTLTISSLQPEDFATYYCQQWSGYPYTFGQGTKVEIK

Response:
[2, 7.2, 3.1, 9.7, 7.6, 3]
